assayed_system: T1, ZFP SBS#933 (synthetic)
T1 chain: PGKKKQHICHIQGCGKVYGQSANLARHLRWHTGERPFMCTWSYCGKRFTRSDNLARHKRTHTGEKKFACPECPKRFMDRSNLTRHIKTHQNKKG
experiment_notes: EMSA
cond: tags: MBP fusion
result_type: Kd (nM)
Field format: number, assumed nM, no unit text.

Query block: Sample GACGAGGAA (dsDNA) DNA 1: GACGAGGAA DNA 2: TTCCTCGTC — what was its Kd?
Result block: 500
